tested on: Human immunodeficiency virus type 1 reverse transcriptase (Human immunodeficiency virus 1), Q72547 [Y181I]
Collected ID50 values appear next to each entry.

# example entries with known answers
| Compound | ID50 |
| --- | --- |
| COC(c1nc(SC(C)C)[nH]c(=O)c1C)c1c(Cl)cccc1Cl (centres undefined) | > 40 µM |
| COC(c1nc(SC2CCCC2)[nH]c(=O)c1C)c1c(Cl)cccc1Cl (centres undefined) | > 40 µM |
| Cc1ccnc2c1NC(=O)c1cccnc1N2C1CC1 | 33 to 35 µM |

Here is another compound to look at.
Need ID50, item CCC(C)Sc1nc(C(OC)c2c(Cl)cccc2Cl)c(C)c(=O)[nH]1 (centres undefined)
> 40 µM
